Assay: Dynamic Vapor Sorption (DVS)
Type: physicochemical
Details: DVS, 5-95% RH
readout_label: water uptake, weight gain between 5-95% relative humidity (RH)

Query :: For CC(C)(O)CNc1nnc(-c2ccc(Cl)cc2O)c2ccncc12 [Form I freebase] , what is its reported water uptake, weight gain between 5-95% relative humidity (RH)?
Result :: 0.5%

* * *

Assay: Solid form stability studies, 75% RH at 40° C. for one week (XRPD and HPLC)
Format: physicochemical
Details: HPLC, before stability test
readout_label: Purity % a/a (input material) (% a/a)
Hi! Could you send only the number? It should be in % a/a, unit omitted.

Please review the following examples before continuing.
CC(C)(O)CNc1nnc(-c2ccc(Cl)cc2O)c2ccncc12 [Form V freebase] : 99.46
CC(C)(O)CNc1nnc(-c2ccc(Cl)cc2O)c2ccncc12 [Form III freebase] : 99.54

Query :: For CC(C)(O)CNc1nnc(-c2ccc(Cl)cc2O)c2ccncc12 [Form I freebase] , what is its reported Purity % a/a (input material)?
Result :: 98.06

Query :: For CC(C)(O)CNc1nnc(-c2ccc(Cl)cc2O)c2ccncc12 [Form II freebase] , what is its reported Purity % a/a (input material)?
Result :: 98.12

Query :: For CC(C)(O)CNc1nnc(-c2ccc(Cl)cc2O)c2ccncc12 [Form IV freebase] , what is its reported Purity % a/a (input material)?
Result :: 99.48
